# neuronal survival per record follows
test system: rat hippocampal neurons; assay: Neuronal survival assay in cultured hippocampal neurons treated with camptothecin or etoposide; type: cell-based; conditions: pretreated with 100 nM of analogue, then camptothecin (5 μM), 24 h
Counter-ions that a name gives are not always drawn.
Readout label: neuronal survival

> print(dat)
                                   compound           assayed.system  value.measured
1  Br.Cc1ccc(C(=O)Cn2c3c(sc2=N)CC(C)CC3)cc1 (centres unmarked) [Compound 5×]  rat hippocampal neurons             29%
2  Br.CCC(=O)Cn1c2c(sc1=N)CCCC2 [Compound 1]  rat hippocampal neurons             65%
3  Br.N=c1sc2c(n1CC1CC1)CCCC2 [Compound 15]  rat hippocampal neurons             23%
4  N=c1sc2c(n1Cc1ccccc1)CCCC2 [Compound 14, Hydrobromide]  rat hippocampal neurons             61%
5  Cc1ccc(C(=O)Cn2c3c(sc2=N)CCCC3)cc1 [Compound 5, hydrobromide, reference compound]  rat hippocampal neurons             62%
